Each item that follows carries a reported AC50.
target: Replicative DNA helicase DnaB (Mycobacterium tuberculosis); experiment: DnaB intein splicing inhibitors, dose response, biochemical, cell-free fluorescence (AID 449749); assay type: functional
Active and inactive are the calls of the source.

Solved entries (count: 2):
COc1cccc(NC(=O)CSc2c3c(nc4ccccc24)CCCC3)c1 35.9 µM (active)
Cc1cc(C(=O)CCl)c(C)n1CCc1ccccc1 16.9 µM (active)

Now consider a different compound.
Quick one: AC50 of Cc1ccc(Cn2ncc(Cl)c(Cl)c2=O)cc1 ?
14.3 µM (active)

====

Overview of recorded EC50 for various molecules
system: H4; experiment: Luminescence Cell-Based Dose Response HTS to Identify Activators of 5'UTR Stem-Loop Driven Prion Protein mRNA Translation in H4 Neuroglioblastoma Cells. [Related pubchem assays: 1829 (Project Summary), 1814 (Primary HTS)]; type: functional; conditions: Homo sapiens
Calls of active or inactive are those of the source.

Some solved entries appear below for comparison.
MOLECULE	MEASURED_ON	EC50
O=C(NC(=S)Nc1ccccc1C(=O)O)c1ccc(-c2ccc(Br)cc2)o1	H4	22.1 µM (active)
Cc1cc(C(=O)COC(=O)Cc2nnc(O)c3ccccc23)c(C)n1-c1ccc2c(c1)OCCO2	H4	71.5 µM (active)
COc1cc2c(cc1NC(=O)CN1CCN(S(=O)(=O)c3ccccc3F)CC1)oc1ccccc12	H4	> 120 µM (not active)

Read the next record carefully.
Quick one: EC50 of O=C(C1CCCN(c2ncnc3c2nc2n3CCCCC2)C1)N1CCN(c2ccccc2)CC1 (centres undefined) ?
> 120 µM (not active)

====

Listed below: EC50 values for each entry.
biological target: Peroxisome proliferator-activated receptor gamma/Nuclear receptor coactivator 2 (Homo sapiens, UniProt P37231); test: TR-FRET dose response biochemical High Throughput Screening assay for agonists of the steroid receptor coactivator 2 (SRC-2) recruitment by the peroxisome proliferator-activated receptor gamma (PPAR gamma): non-selective agonists. [Related pubchem assays: 1297, 1032 ]; type: functional
Sequence (P37231 whole entry): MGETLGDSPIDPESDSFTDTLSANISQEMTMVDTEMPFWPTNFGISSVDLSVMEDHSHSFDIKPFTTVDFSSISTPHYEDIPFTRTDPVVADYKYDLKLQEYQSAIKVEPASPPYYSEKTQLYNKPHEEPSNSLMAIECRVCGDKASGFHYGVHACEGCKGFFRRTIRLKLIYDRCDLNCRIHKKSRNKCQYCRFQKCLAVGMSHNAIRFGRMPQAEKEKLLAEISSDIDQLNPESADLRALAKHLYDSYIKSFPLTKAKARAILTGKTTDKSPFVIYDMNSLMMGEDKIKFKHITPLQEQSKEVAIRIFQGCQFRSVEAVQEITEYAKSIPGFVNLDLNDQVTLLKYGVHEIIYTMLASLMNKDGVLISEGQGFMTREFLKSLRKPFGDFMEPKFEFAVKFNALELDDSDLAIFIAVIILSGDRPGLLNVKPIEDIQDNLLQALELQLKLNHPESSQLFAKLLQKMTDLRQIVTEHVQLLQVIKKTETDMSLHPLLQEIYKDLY
Sequence (Q15596 whole entry, further chain): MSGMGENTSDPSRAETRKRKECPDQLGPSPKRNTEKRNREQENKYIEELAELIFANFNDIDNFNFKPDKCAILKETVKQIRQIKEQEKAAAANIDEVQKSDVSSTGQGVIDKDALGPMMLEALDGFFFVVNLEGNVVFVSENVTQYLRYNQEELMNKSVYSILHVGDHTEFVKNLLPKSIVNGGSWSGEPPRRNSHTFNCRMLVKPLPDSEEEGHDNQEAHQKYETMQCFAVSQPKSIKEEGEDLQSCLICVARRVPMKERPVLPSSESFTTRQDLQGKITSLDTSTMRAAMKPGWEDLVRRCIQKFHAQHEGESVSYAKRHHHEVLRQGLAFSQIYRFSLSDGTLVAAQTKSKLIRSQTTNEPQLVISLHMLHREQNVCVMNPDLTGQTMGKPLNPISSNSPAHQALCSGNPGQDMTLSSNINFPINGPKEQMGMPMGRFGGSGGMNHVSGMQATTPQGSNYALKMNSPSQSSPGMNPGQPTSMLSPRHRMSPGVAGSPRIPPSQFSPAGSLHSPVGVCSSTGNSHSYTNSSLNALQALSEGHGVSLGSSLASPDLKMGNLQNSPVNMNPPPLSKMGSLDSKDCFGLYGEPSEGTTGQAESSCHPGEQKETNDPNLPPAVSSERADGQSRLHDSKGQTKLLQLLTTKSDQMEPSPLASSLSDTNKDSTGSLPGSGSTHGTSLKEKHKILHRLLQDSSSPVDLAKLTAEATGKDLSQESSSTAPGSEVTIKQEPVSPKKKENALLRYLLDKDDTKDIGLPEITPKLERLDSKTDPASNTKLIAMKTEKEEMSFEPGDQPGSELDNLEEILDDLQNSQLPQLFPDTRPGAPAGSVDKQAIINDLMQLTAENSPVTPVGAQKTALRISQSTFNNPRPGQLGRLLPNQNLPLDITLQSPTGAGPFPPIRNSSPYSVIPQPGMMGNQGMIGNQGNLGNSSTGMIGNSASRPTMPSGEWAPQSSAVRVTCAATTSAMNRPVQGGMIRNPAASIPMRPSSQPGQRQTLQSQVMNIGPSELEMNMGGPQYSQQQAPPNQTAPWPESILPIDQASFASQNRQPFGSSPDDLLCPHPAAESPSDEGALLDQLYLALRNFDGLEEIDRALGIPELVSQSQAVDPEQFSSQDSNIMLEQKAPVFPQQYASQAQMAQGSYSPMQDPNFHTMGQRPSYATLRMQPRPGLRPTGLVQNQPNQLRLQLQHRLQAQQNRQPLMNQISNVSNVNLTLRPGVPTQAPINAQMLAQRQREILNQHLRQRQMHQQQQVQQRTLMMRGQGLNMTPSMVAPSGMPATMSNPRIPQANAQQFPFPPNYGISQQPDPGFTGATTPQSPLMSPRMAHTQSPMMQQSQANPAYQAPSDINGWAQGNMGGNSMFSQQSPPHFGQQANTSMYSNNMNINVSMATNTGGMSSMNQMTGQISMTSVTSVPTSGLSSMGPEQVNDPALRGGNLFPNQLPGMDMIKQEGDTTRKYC

Look over these answered cases.
MOLECULE	EC50
CSC1=NP(=S)(SC)N(C)c2nc3n(c21)CCC3 (stereo unspecified)	> 79.4 µM (not active)
COc1cccc(NC(=O)CSc2c3c(nc4ccccc24)CCCC3)c1	66.1 µM (not active)
Cc1cn(S(=O)(=O)c2ccc(Br)c3ccccc23)cn1	> 79.4 µM (not active)
CCn1c(=O)cc(SCC(=O)Nc2ccc(OC)c(OC)c2)c2ccccc21	53.8 µM (not active)
COc1c(F)c(F)c(C(=O)Nc2ccc3oc(-c4ccncc4)nc3c2)c(F)c1F	20.6 µM (not active)

Alright, here's another molecule for you.
What does the data say about its EC50? Entry: N#Cc1cc2c(nc1SCc1ccccc1)CCCCC2
12.7 µM (not active)

====

target: RNA-binding protein pos-1 (Caenorhabditis elegans); test: disruptors of C. elegans POS-1 RNA interaction – biochemical, fluorescence polarization, dose response (AID 1964);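 also: purified POS-1 fused to maltose binding protein made in E. coli; potency of compounds blocking POS-1 binding to fluorescent RNA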
Sequence (G5EF15 whole entry, the tested form may be a part): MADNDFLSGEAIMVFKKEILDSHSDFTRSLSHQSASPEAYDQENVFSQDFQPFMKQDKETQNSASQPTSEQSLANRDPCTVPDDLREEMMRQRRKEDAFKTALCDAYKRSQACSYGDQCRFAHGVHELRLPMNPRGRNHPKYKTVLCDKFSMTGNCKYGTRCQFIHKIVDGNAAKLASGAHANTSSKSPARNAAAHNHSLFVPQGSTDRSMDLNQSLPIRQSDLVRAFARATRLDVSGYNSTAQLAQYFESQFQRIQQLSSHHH
Active and inactive are the calls of the source.
PARAMETER: EC50

A selection of reference data follows.
COMPOUND	MEASURED_ON	EC50
COc1cc(/C=N/c2oc(-c3ccccc3)cc2C#N)ccc1O	RNA-binding protein pos-1 (Caenorhabditis elegans)	> 300 µM (not active)
COCCNC(=O)C1Nc2ccc(OC(F)(F)F)cc2C2C=CCC12 (stereo unspecified)	RNA-binding protein pos-1 (Caenorhabditis elegans)	> 300 µM (not active)
O=C(c1ccc(F)cc1)N1CCN(C2CCC(c3ccccc3)CC2)CC1 (stereo unspecified)	RNA-binding protein pos-1 (Caenorhabditis elegans)	> 300 µM (not active)
Cc1cc(/C=C2\C(=O)NC(=O)N(Cc3ccccc3)C2=O)c(C)n1C1CC1	RNA-binding protein pos-1 (Caenorhabditis elegans)	> 300 µM (not active)
CCC(=O)Nc1ccc2nc3c(O)nc(S)nc3nc2c1	RNA-binding protein pos-1 (Caenorhabditis elegans)	20.9 µM (active)

Next up:
I am curious: what EC50 value has been reported for CC1(OC(=O)c2cccs2)C(=O)C=C2C=C(C3CC3)OC=C2C1=O (stereo unspecified) ?
42.3 µM (active)

====

target: Kallikrein-7 (Homo sapiens, UniProt P49862); assay: Fluorescence Intensity-based biochemical primary high throughput dose response assay to identify activators of kallikrein-7 (K7) zymogen.
Sequence (P49862 whole entry): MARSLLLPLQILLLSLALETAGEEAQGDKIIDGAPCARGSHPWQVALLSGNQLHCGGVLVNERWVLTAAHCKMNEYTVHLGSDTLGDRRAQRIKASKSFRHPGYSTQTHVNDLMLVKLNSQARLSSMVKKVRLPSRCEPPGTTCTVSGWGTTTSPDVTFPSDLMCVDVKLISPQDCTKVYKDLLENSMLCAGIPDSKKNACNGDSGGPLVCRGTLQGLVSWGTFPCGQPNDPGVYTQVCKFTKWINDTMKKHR
Calls of active or inactive are those of the source.
PARAMETER: EC50

COMPOUND	ENDPOINT_RESULT
N#Cc1c(NC(=O)COC(=O)c2nccnc2N)sc2c1CCCC2	> 69.5 µM (inactive)
COc1ccc(-c2ccc3nnc(SCC(=O)N4CCCC4)n3n2)cc1	> 69.5 µM (inactive)
COC(=O)c1ccc(C2C(C#N)=C(C)N=C3CC(C)(C)CC(O)=C32)cc1 (centres undefined)	20.8 µM (inactive)

Lab note: next compound to report on.
Given the compound O=C(Nc1cccc2c1[nH]c1ccccc12)C(F)(F)F , what is its reported EC50?
31.8 µM (inactive)

====

// values below are AC50; system is Cytochrome P450 3A4 (Homo sapiens)
Sequence (P08684 whole entry): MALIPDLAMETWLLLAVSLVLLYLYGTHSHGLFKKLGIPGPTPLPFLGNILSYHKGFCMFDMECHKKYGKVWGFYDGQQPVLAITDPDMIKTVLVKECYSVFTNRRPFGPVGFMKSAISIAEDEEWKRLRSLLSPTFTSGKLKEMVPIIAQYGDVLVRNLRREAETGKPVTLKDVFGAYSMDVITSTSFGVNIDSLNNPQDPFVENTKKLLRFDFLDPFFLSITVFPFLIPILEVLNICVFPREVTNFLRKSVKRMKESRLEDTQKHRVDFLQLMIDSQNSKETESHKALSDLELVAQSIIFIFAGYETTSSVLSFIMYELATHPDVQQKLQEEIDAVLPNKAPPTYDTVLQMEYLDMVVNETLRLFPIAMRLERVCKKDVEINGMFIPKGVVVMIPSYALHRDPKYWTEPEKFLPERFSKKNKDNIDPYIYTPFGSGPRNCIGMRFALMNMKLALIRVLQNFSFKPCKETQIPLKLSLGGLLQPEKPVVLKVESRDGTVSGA

These recorded examples may help you get a feel for the data.
MOLECULE	AC50
Cc1nc2cnc(Oc3ccccc3)nc2n(-c2ccccc2)c1=O	25.1 µM (inconclusive)
CCOC(=O)CSc1ncc(OC)c(Sc2ccc(Cl)cc2)n1	25.1 µM (inconclusive)
C[Se]C[C@@H](N)C(=O)O	1.26 µM (inconclusive)
COC(=O)[C@@]1(Cc2ccc(OC)cc2)[C@@H]2C(=CC(=O)[C@H]2CC(=O)C(=O)N(C)C)CN1C(=O)c1ccccc1	2.51 µM (inconclusive)
COC(=O)C/C=C\[C@@H](C)[C@@H](/C=N\O[C@@H](C)CN1CCCc2nc(C)c(C)cc21)OC	3.16 µM (inconclusive)
CC(/C=C/c1ccco1)=N/NC(=O)c1ccccc1Cl	31.6 µM (inconclusive)
O=C(c1ccccc1NS(=O)(=O)c1cccc([N+](=O)[O-])c1)N1CCOCC1	17.8 µM (inconclusive)
Cn1cc(/C=N/n2cnc3sc4c(c3c2=O)CCCC4)c2ccccc21	22.4 µM (inconclusive)
N=C1O[C@@H](c2c[nH]c3ccc(OCc4ccccc4)cc23)C(O)=C1O	3.16 µM (inconclusive)
O=[N+]([O-])c1ccc(Nc2nc3ccccc3s2)cc1	5.01 µM (inconclusive)

Lab note: need AC50 with Cytochrome P450 3A4 (Homo sapiens) for entry CNCCNS(=O)(=O)c1cccc2cnccc12 , please look it up.
20 µM (inconclusive)

Lookup: AC50 / Cytochrome P450 3A4 (Homo sapiens) / CO[C@H]1COC(=O)[C@H]2CCCN2C(=O)C/C=C\[C@@H](C)[C@H](OC)COC(=O)[C@@H](OCc2ccccc2)/C=C\[C@@H]1C
3.98 µM (inconclusive)

Observed AC50 on Cytochrome P450 3A4 (Homo sapiens) for CCOC(=O)c1c(CC(C)C)csc1NC=O , please.
22.4 µM (inconclusive)

Please provide the recorded AC50 for Sc1nnc(-c2ccncc2)n1CC1CCCO1 (stereo not given) , tested on Cytochrome P450 3A4 (Homo sapiens).
22.4 µM (inconclusive)

Please provide the recorded AC50 for C[C@@H](COc1ccc(/C=C\c2ccccc2)cc1)[N+](C)(C)C , tested on Cytochrome P450 3A4 (Homo sapiens).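 Also: CYP3A4 tested as one member of a cytochrome P450 panel screen.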
10 µM (inconclusive)

====

biological target: Protein skinhead-1 (Caenorhabditis elegans, UniProt P34707); assay type: functional
Sequence (P34707 whole entry): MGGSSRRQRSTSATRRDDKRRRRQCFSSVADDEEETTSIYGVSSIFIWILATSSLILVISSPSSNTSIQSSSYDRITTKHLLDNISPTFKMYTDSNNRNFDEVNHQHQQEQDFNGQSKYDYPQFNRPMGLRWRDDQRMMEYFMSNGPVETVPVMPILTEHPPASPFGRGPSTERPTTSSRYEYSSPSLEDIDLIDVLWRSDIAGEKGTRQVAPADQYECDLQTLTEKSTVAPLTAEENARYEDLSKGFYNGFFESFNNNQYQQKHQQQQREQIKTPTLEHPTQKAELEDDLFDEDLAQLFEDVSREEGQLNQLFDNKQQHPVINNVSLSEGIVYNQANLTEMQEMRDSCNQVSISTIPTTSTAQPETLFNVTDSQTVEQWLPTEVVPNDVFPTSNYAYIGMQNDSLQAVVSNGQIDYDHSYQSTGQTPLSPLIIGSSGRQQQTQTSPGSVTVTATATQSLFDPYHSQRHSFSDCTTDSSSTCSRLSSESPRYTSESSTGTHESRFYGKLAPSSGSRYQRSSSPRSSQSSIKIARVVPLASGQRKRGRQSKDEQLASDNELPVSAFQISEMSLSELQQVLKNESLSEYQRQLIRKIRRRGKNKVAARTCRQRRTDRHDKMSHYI
Active and inactive are the calls of the source.
Valid outcomes are listed here; reply with one: active, inactive

COMPOUND	DISCRETE_LABEL
O=C(O)C(Oc1ccc2ccccc2c1)c1ccccc1 (centres undefined)	inactive
CCc1nc2oc3ccccc3c(=O)c2c(=O)n1-c1ccccc1	inactive
O=C(NCc1ccc(Cl)cc1)C1CCN(c2nnc(N3CCCC3=O)s2)CC1	inactive
CCn1c(CSc2n[nH]c(N)n2)nc2cc(C(=O)O)ccc21	inactive
COc1ccc(C(=O)Nc2cccc(OC(=O)c3ccc(C)c(C)c3)c2)cc1	inactive
CCc1ccc(C(=O)Nc2ccc3nc(C)ccc3c2)cc1	active
Fc1ccc(-c2csc(-c3ccncc3)n2)cc1	active
Clc1ccc(SCc2cc(-c3ccc(Cl)cc3)on2)cc1	inactive

Would you kindly look at the next entry?
Which outcome was assigned to c1csc(-c2ccc3ccccc3n2)c1 in this test?
active

====

Molecular target: Short transient receptor potential channel 4 (Mus musculus, UniProt Q9QUQ5)
Sequence (Q9QUQ5 whole entry): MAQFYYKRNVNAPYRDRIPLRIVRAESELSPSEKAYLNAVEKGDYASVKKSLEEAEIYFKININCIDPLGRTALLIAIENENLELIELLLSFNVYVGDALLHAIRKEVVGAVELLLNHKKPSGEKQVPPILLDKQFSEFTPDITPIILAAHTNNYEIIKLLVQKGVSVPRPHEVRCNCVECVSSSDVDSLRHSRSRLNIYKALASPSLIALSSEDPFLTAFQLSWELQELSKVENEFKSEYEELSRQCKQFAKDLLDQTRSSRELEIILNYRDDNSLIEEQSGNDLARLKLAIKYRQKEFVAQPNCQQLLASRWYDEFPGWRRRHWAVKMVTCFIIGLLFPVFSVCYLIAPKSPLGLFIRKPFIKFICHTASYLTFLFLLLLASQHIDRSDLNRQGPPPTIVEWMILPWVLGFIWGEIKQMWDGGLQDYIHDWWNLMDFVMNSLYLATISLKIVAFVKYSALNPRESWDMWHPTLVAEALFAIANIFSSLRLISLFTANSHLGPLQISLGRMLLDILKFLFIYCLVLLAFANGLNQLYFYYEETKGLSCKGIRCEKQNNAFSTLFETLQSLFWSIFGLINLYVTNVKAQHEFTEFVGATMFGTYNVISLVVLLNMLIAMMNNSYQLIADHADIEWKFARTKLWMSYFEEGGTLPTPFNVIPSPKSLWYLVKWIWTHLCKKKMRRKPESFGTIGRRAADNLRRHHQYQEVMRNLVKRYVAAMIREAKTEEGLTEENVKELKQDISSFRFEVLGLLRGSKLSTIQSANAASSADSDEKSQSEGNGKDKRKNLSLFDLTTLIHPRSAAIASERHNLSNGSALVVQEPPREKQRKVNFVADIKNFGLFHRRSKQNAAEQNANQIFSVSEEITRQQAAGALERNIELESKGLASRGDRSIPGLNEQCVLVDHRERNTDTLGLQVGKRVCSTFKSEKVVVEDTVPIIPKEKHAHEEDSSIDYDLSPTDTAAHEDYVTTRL
Assay: block of DAMGO-driven TRPC4 calcium entry – cell-based, HEK293 TRPC4/mu-opioid, Fluo-4 calcium, dose response (AID 434942);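 also: potency of inhibitors blocking the TRPC4 calcium response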
Format: functional
Active and inactive are the calls of the source.
PARAMETER: EC50

Guide cases for EC50, answers given:
COMPOUND	ENDPOINT_RESULT
COCCCNc1cc(C)nc2ccccc12	3760 nM (active)
CC1(C)CC2CC(C)(CN2CC(O)COc2ccccc2)C1 (centres undefined)	1880 nM (active)
O=C(c1ccc2c(c1)OCO2)C1CCCN(Cc2ccccc2OC(F)F)C1 (centres undefined)	2990 nM (active)

Here is another compound to look at.
# lookup: EC50 of Oc1ccccc1Nc1nc(NCc2ccco2)c2ccccc2n1
2110 nM (active)
